Test: Metal chelating activity assessed as compound-Fe(III) complex formation by measuring RhB degradation in MgO2/Fe(III) system measured within 30 mins by UV-Visible spectrophotometry
property: Activity (%)
Record the value in %, omitting the unit from your answer.

{"item_smiles": "O=C(O)C(=O)O", "result": 48.9}
{"item_smiles": "O=C(O)[C@@H](O)[C@H](O)C(=O)O", "result": 98.5}
{"item_smiles": "O=C(O)CN(CCN(CC(=O)O)CC(=O)O)CC(=O)O", "result": 25.8}

Okay, next one:
Query: Using the record for O=C(O)CC(O)(CC(=O)O)C(=O)O , report its Activity.
Result: 42.3

---

Experiment: Cytotoxicity against human HepG2 cells assessed as cell mass at 375 to 500 ug/ml measured after 24 hrs by SRB binding assay
Assay type: toxicity, cell-based
Conditions: at 375 to 500 µg/mL, dose 375-500 µg/ml, read-out: Activity
property: viability at 24 h (%)
Record the value in %, omitting the unit from your answer.

Query: Using the record for Cc1occc(=O)c1O , report its viability at 24 h.
Result: 68

---

Tested on: Pseudomonas aeruginosa
Assay: Bactericidal activity against Pseudomonas aeruginosa ATCC 10145 assessed as bacterial killing incubated in MHB for 24 hrs and measured following culturing on agar plate for 24 hrs
Assay type: functional
Settings: time 48 hrs
Items are presented alongside their recorded MBC.
Record the value in µg/mL, omitting the unit from your answer.

{"item_smiles": "O=C(O)c1cn(C2CC2)c2cc(N3CCNCC3)c(F)cc2c1=O", "MBC (µg/mL)": 32}

Okay, next one:
Query: Using the record for NC[C@H]1O[C@H](O[C@H]2[C@H](O)[C@@H](O[C@H]3O[C@H](CO)[C@@H](O)[C@H](N)[C@H]3O)[C@H](N)C[C@@H]2N)[C@H](N)C[C@@H]1O , report its MBC.
Result: 16
